# procedure.summary: Cmax in C57BL/6 mouse at 15 mg/kg, po
# Assay type: ADME, organism-based
# assay.setup: in vivo
endpoint: Cmax (ng/mL)
Enter your answer as a number in ng/mL; do not include the unit.

What the record says about CN1CC(C)(C(O)(c2ccc(OC(F)(F)F)cc2)c2cncc(N3CCCC3)c2)C1 (racemic) : Cmax is 30

* * *

# procedure.summary: Chemical stability of the compound at 0.1 mg/ml at pH 4 irradiated with xenon lamp at 250W/m2 incubated for 24 hrs by stress test
# Format: physicochemical
# assay.setup: buffer, read-out: Stability
endpoint: remaining at 24 h, 0.1 mg/ml (%)
Enter your answer as a number in %; do not include the unit.

What the record says about CN1CC(C)(C(O)(c2ccc(OC(F)(F)F)cc2)c2cncc(N3CCCC3)c2)C1 (racemic) : remaining at 24 h, 0.1 mg/ml is 4

* * *

# procedure.summary: Volume of distribution at steady state in Wistar rat at 1 mg/kg, iv
# Type: ADME, organism-based
# assay.setup: in vivo, read-out: Vdss
endpoint: Vd (L/kg)
Enter your answer as a number in L/kg; do not include the unit.

What the record says about CN1CC(C)(C(O)(c2ccc(OC(F)(F)F)cc2)c2cncc(N3CCCC3)c2)C1 (racemic) : Vd is 11

* * *

# procedure.summary: Drug metabolism in human liver microsomes assessed as dGSH trapping by measuring reactive metabolite formation at 10 uM measured after 60 mins in presence of dGSH and NADPH regenerating system by LC-MS/MS analysis
# Type: ADME, Microsome
# assay.setup: 1 h
Would you please tag the item T when its Drug metabolism is 400 pmol/mg/h or above, and F when it is below?

INPUT: Form field: Drug metabolism at least 400 pmol/mg/h? Entry: CC(C)c1ccc([C@](O)(c2cncc(N3CCCC3)c2)C2(C)CN(C)C2)cc1
OUTPUT: F

INPUT: Form field: Drug metabolism at least 400 pmol/mg/h? Entry: CC(C)c1ccc([C@](O)(c2cncc(N3CC4CC(C3)O4)c2)C2(C)CN(C)C2)cc1
OUTPUT: F

INPUT: Form field: Drug metabolism at least 400 pmol/mg/h? Entry: CC(C)c1ccc([C@](O)(c2cnnc(N3CC4(CC4)CC3=O)c2)C2(C)CN(C)C2)cc1
OUTPUT: F

INPUT: Form field: Drug metabolism at least 400 pmol/mg/h? Entry: CC(C)c1ccc([C@](O)(c2cnnc(N3CCCC3)c2)C2(C)CN(C)C2)cc1
OUTPUT: F

INPUT: Form field: Drug metabolism at least 400 pmol/mg/h? Entry: CC(C)c1ccc([C@](O)(c2cncc(N3CCOCC3)c2)C2(C)CN(C)C2)cc1
OUTPUT: T

INPUT: Form field: Drug metabolism at least 400 pmol/mg/h? Entry: CC(C)c1ccc([C@](O)(c2cncc(N3CC[C@H](C(C)(C)O)C3)c2)C2(C)CN(C)C2)cc1
OUTPUT: F

INPUT: Form field: Drug metabolism at least 400 pmol/mg/h? Entry: CC(C)c1ccc([C@](O)(c2cncc(N3CCCC3=O)c2)C2(C)CN(C)C2)cc1
OUTPUT: F

INPUT: Form field: Drug metabolism at least 400 pmol/mg/h? Entry: CC(C)c1ccc([C@](O)(c2cncc(N3CC[C@@H](O)C3)c2)C2(C)CN(C)C2)cc1
OUTPUT: T

INPUT: Form field: Drug metabolism at least 400 pmol/mg/h? Entry: CC(C)c1ccc([C@](O)(c2cccc(-c3noc(C4CCOCC4)n3)c2)C2(C)CN(C)C2)cc1
OUTPUT: F

INPUT: Form field: Drug metabolism at least 400 pmol/mg/h? Entry: CC(C)c1ccc([C@](O)(c2cncc(N3CC[C@H](O)C3)c2)C2(C)CN(C)C2)cc1
OUTPUT: T

INPUT: Form field: Drug metabolism at least 400 pmol/mg/h? Entry: CC(C)c1ccc([C@](O)(c2cncc(N3C[C@@H](F)[C@@H](F)C3)c2)C2(C)CN(C)C2)cc1
OUTPUT: F

* * *

# procedure.summary: Half life in Wistar rat at 3 mg/kg, iv
# Format: ADME, organism-based
# assay.setup: in vivo
endpoint: half-life

What the record says about CC(C)c1ccc([C@](O)(c2cccc(-c3noc(C(C)(C)O)n3)c2)C2(C)CN(C)C2)cc1 : half-life is 3.6 h

* * *

# procedure.summary: Clearance in Beagle dog at 1 mg/kg, iv
# Assay type: ADME, organism-based, Canis lupus familiaris
# assay.setup: in vivo
endpoint: clearance (mL/min/kg)
Enter your answer as a number in mL/min/kg; do not include the unit.

What the record says about CC(C)c1ccc([C@](O)(c2cccc(-c3noc(C(C)(C)O)n3)c2)C2(C)CN(C)C2)cc1 : clearance is 38

* * *

# procedure.summary: Fraction unbound in rat plasma at 1 uM by rapid equilibrium dialysis based LC-MS/MS analysis
# Assay type: ADME, cell-free
endpoint: fraction unbound at 1 µM

What the record says about CN1CC(C)(C(O)(c2ccc(OC(F)(F)F)cc2)c2cncc(N3CCCC3)c2)C1 (racemic) : fraction unbound at 1 µM is 0.06

* * *

# procedure.summary: AUC in C57BL/6 mouse at 50 mg/kg, po
# Format: ADME, organism-based
# assay.setup: in vivo
endpoint: AUC (ng·h/mL)
Enter your answer as a number in ng·h/mL; do not include the unit.

What the record says about CN1CC(C)(C(O)(c2ccc(OC(F)(F)F)cc2)c2cncc(N3CCCC3)c2)C1 (racemic) : AUC is 5030

* * *

# procedure.summary: Oral bioavailability in Wistar rat at 10 mg/kg
# Format: ADME, organism-based
# assay.setup: in vivo
endpoint: bioavailability (%)
Enter your answer as a number in %; do not include the unit.

What the record says about CN1CC(C)(C(O)(c2ccc(OC(F)(F)F)cc2)c2cncc(N3CCCC3)c2)C1 (racemic) : bioavailability is 6

* * *

# procedure.summary: Oral bioavailability in Wistar rat at 50 mg/kg
# Format: ADME, organism-based
# assay.setup: in vivo
endpoint: bioavailability
I'd appreciate it if you included the unit after the number.

What the record says about CN1CC(C)(C(O)(c2ccc(OC(F)(F)F)cc2)c2cncc(N3CCCC3)c2)C1 (racemic) : bioavailability is 11%

* * *

# procedure.summary: AUC in C57BL/6 mouse at 15 mg/kg, po
# Type: ADME, organism-based
# assay.setup: in vivo
endpoint: AUC
I'd appreciate it if you included the unit after the number.

What the record says about CN1CC(C)(C(O)(c2ccc(OC(F)(F)F)cc2)c2cncc(N3CCCC3)c2)C1 (racemic) : AUC is 145 ng·h/mL

* * *

# procedure.summary: AUC in Beagle dog at 1 mg/kg, iv
# Type: ADME, organism-based, Canis lupus familiaris
# assay.setup: in vivo
endpoint: AUC (ng·h/mL)
Enter your answer as a number in ng·h/mL; do not include the unit.

What the record says about CC(C)c1ccc([C@](O)(c2cccc(-c3noc(C(C)(C)O)n3)c2)C2(C)CN(C)C2)cc1 : AUC is 436

* * *

# procedure.summary: Intrinsic clearance in rat liver microsomes at 1 uM measured for 15 mins in presence of NADPH regenerating system by LC-MS/MS analysis
# Type: ADME, Microsome
# assay.setup: read-out: CLH
endpoint: microsomal CLint at […], 1 µM (µL/min/mg)
Enter your answer as a number in µL/min/mg; do not include the unit.

What the record says about CN1CC(C)(C(O)(c2ccc(OC(F)(F)F)cc2)c2cncc(N3CCCC3)c2)C1 (racemic) : microsomal CLint at […], 1 µM is 750

* * *

# procedure.summary: Intrinsic clearance in mouse liver microsomes at 1 uM measured for 15 mins in presence of NADPH regenerating system by LC-MS/MS analysis
# Format: ADME, Microsome
# assay.setup: read-out: CLH
endpoint: microsomal CLint at […], 1 µM (µL/min/mg)
Enter your answer as a number in µL/min/mg; do not include the unit.

What the record says about CN1CC(C)(C(O)(c2ccc(OC(F)(F)F)cc2)c2cncc(N3CCCC3)c2)C1 (racemic) : microsomal CLint at […], 1 µM is 666

* * *

# procedure.summary: Fraction unbound in mouse plasma at 1 uM by rapid equilibrium dialysis based LC-MS/MS analysis
# Format: ADME, cell-free
endpoint: fraction unbound at 1 µM
Answer field: number only, no words.

What the record says about CN1CC(C)(C(O)(c2ccc(OC(F)(F)F)cc2)c2cncc(N3CCCC3)c2)C1 (racemic) : fraction unbound at 1 µM is 0.05

* * *

# procedure.summary: Intrinsic solubility of the compound at pH >11.5 using amorphous form of sample
# Format: physicochemical
# assay.setup: read-out: Intrinsic_solubility
endpoint: solubility
I'd appreciate it if you included the unit after the number.

What the record says about CC(C)c1ccc([C@](O)(c2cccc(-c3noc(C(C)(C)O)n3)c2)C2(C)CN(C)C2)cc1 : solubility is 100 µg/mL

* * *

# procedure.summary: Cmax in C57BL/6 mouse at 50 mg/kg, po
# Format: ADME, organism-based
# assay.setup: in vivo
endpoint: Cmax (ng/mL)
Enter your answer as a number in ng/mL; do not include the unit.

What the record says about CN1CC(C)(C(O)(c2ccc(OC(F)(F)F)cc2)c2cncc(N3CCCC3)c2)C1 (racemic) : Cmax is 1100
